Kindly supply the reported inhibition of growth at 10 µM values for the records listed here.
- System: HL-60(TB)
- assay: Cytotoxicity against human HL-60(TB) cells assessed as growth inhibition at 10 uM after 48 hrs by sulphorhodamine B assay
- Type: functional
- experimental parameters: HL-60, 48 h, read-out: GI
Give bare numbers, in %.

These solved cases illustrate the format of a correct answer.
CC1CCCc2c1nc1[nH]c(=S)nc(N)c1c2-c1ccc(Cl)cc1 (stereo unspecified); 10
CCSc1nc(N)c2c(-c3ccc(OC)cc3)c3c(nc2n1)C(C)CCC3 (stereo unspecified); 34.5
CC1CCCc2c1nc1ncnc(N)c1c2-c1ccc(Cl)cc1 (stereo unspecified); 12.4
CC1CCCc2c1nc1nc(SCC(=O)c3ccccc3)nc(N)c1c2-c1ccc(Cl)cc1 (stereo unspecified); 22

So for COc1ccc(-c2c(C#N)c(N)nc3c2CCCC3C)cc1 (stereo unspecified) , the logged inhibition of growth at 10 µM turned out to be 11.7

----------
- System: K562
- assay: Cytotoxicity against human K562 cells assessed as growth inhibition at 10 uM after 48 hrs by sulphorhodamine B assay
- Format: functional
- experimental parameters: K562, 48 h, read-out: GI
Decide by inhibition of growth at 10 µM: equal to or exceeding 30% means TRUE, less means FALSE.

COc1ccc(-c2c3c(nc4ncnc(N)c24)C(C)CCC3)cc1 (stereo not given); FALSE
COc1ccc(-c2c3c(nc4nc(C)[nH]c(=O)c24)C(C)CCC3)cc1 (stereo not given); FALSE
CC1CCCc2c1nc1[nH]c(=O)nc(N)c1c2-c1ccc(Cl)cc1 (stereo not given); TRUE
COc1ccc(-c2c(C#N)c(N)nc3c2CCCC3C)cc1 (stereo not given); FALSE
CC1CCCc2c1nc1ncnc(N)c1c2-c1ccc(Cl)cc1 (stereo not given); FALSE

# input Form field: inhibition of growth at 10 µM at least 30%? Entry: CC1CCCc2c1nc1nc(SCC(=O)c3ccccc3)nc(N)c1c2-c1ccc(Cl)cc1 (stereo not given)
# output FALSE

----------
- Tested on: LOX IMVI
- assay: Cytotoxicity against human LOXIMVI cells assessed as growth inhibition at 10 uM after 48 hrs by sulphorhodamine B assay
- Format: functional
- experimental parameters: read-out: GI
measured attribute: inhibition of growth at 10 µM (%)
Answers are plain numbers, in %.

COc1ccc(-c2c(C#N)c(N)nc3c2CCCC3C)cc1 (stereo not given); 12.3
CC1CCCc2c1nc1nc(SCC(=O)c3ccccc3)nc(N)c1c2-c1ccc(Cl)cc1 (stereo not given); 14.6
COc1ccc(-c2c3c(nc4ncnc(N)c24)C(C)CCC3)cc1 (stereo not given); 13
COc1ccc(-c2c3c(nc4ncn5ncnc5c24)C(C)CCC3)cc1 (stereo not given); 15
CCSc1nc(N)c2c(-c3ccc(OC)cc3)c3c(nc2n1)C(C)CCC3 (stereo not given); 10.6

For the next question, use this compound.
# inhibition of growth at 10 µM (compound: COc1ccc(-c2c3c(nc4nc(C)[nH]c(=O)c24)C(C)CCC3)cc1 (stereo not given) ) is 17.3

----------
- System: HOP-92
- assay: Cytotoxicity against human HOP92 cells assessed as growth inhibition at 10 uM after 48 hrs by sulphorhodamine B assay
- Format: functional
- experimental parameters: HOP-92, 48 h, read-out: GI
Answer each item with its documented inhibition of growth at 10 µM.
Numbers only, in %.

Consider the reported inhibition of growth at 10 µM for these compounds:
CC1CCCc2c1nc1ncnc(N)c1c2-c1ccc(Cl)cc1 (centres undefined); 25.3
COc1ccc(-c2c3c(nc4nc(C)[nH]c(=O)c24)C(C)CCC3)cc1 (centres undefined); 21.3
CCSc1nc(N)c2c(-c3ccc(OC)cc3)c3c(nc2n1)C(C)CCC3 (centres undefined); 26.8

The record that follows has no inhibition of growth at 10 µM shown yet.
Just so you know, measured inhibition of growth at 10 µM for COc1ccc(-c2c3c(nc4ncnc(N)c24)C(C)CCC3)cc1 (centres undefined) came out at 20.4
